- Test system: A431 cells
- test_description: Cellular proliferation (Alamar Blue) assay, A431
- Assay type: cell-based
- details: Homo sapiens, A-431; A431 cells, 72 hr, Alamar Blue; read-out: A431 IC50
property: IC50 (nM)

Recorded IC50, per entry:
smiles_notation	IC50 [nM]
C=CC(=O)Nc1ccc(F)c(Nc2nc(Nc3cnn(CCO)c3)ncc2-c2ccc(Br)cc2)c1	36
C=CC(=O)Nc1ccc(F)c(Nc2nc(Nc3cnn(C4CCOCC4)c3)ncc2-c2ccc(C(F)(F)F)cc2)c1	133

[1] Cn1cc(Nc2ncc(-c3ccc(CC(F)(F)F)cc3)c(Nc3cc(NC(=O)/C=C/CF)ccc3F)n2)cn1
[2] C=CC(=O)Nc1ccc(F)c(Nc2nc(Nc3cnn(C)c3)ncc2-c2ccn3ncnc3c2)c1
[3] C=CC(=O)Nc1ccc(F)c(Nc2nc(Nc3cn(CCN(C)C)nc3Cl)ncc2-c2ccc(Br)cc2)c1
[4] [2H]C([2H])=CC(=O)Nc1ccc(F)c(Nc2nc(Nc3cn(C)nc3Cl)ncc2-c2ccc(C(F)(F)F)cc2)c1
[5] C=CC(=O)Nc1cc(Nc2nc(Nc3cnn(C)c3)ncc2-c2ccc(C(F)(F)F)cc2)ccc1N(C)CCN(C)C
Prompt: List from greatest to least IC50. Please, when replying, give the labels in the order that was requested.
Response: 5, 4, 2, 3, 1

###

- tested_on: EGFR (A767_dupASV) expressing Ba/F3 stable cell line (Homo sapiens, UniProt P00533, DUP767-769, cells depend on it)
- Sequence (P00533 with tags, fused parts or gaps DUP767-769): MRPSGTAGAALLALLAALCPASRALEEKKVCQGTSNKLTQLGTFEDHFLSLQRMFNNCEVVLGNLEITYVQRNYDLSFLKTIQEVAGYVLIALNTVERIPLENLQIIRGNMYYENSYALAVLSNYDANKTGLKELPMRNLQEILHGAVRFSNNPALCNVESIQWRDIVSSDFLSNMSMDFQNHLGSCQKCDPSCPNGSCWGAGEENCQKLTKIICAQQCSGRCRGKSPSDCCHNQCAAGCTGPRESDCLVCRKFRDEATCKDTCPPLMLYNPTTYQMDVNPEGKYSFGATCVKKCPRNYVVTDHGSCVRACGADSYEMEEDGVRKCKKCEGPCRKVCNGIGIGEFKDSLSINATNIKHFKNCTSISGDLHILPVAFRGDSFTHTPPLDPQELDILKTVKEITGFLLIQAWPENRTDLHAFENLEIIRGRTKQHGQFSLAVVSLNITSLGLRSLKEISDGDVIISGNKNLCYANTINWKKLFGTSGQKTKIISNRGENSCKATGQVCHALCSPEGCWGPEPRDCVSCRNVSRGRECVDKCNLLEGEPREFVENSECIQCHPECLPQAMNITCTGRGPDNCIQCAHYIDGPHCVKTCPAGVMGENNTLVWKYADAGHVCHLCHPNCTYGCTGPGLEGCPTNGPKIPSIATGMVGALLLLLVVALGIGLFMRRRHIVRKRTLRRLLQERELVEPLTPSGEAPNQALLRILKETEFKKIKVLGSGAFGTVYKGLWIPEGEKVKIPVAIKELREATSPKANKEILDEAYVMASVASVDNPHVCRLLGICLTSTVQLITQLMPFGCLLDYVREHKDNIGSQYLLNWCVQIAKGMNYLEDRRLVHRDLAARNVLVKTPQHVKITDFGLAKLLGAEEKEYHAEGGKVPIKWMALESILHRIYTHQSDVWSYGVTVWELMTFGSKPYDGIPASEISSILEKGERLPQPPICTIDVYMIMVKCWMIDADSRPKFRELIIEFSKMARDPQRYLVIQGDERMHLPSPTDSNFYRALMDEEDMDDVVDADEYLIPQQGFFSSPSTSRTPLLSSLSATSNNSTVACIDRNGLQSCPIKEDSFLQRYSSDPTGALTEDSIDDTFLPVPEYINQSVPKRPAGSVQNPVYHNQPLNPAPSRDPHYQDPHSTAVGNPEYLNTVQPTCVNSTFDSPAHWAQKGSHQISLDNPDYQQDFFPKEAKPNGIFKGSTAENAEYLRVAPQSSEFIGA
- test_description: Cellular proliferation (Alamar Blue) assay, EGFR A767_dupASV Ba/F3
- Format: cell-based
- details: 72 hr, read-out: A767 IC50
property: GI50 (nM)

compound	unit_spec	GI50
C=CC(=O)Nc1ccc(F)c(Nc2nc(Nc3cnn(C)c3)ncc2-c2cccnc2)c1 [Compound 84]	nM	83

[a] CN(C)C/C=C/C(=O)Nc1cccc(Nc2nc(Nc3cnn(C)c3)ncc2CNc2ccccc2)c1 [Compound 17]
[b] C=CC(=O)Nc1cccc(Oc2nc(Nc3cnn(C)c3)ncc2-c2cncc(C(F)(F)F)c2)c1 [Compound 104]
[c] C=CC(=O)Nc1ccc(F)c(Nc2nc(Nc3cccc(CN(C)C)c3)ncc2-c2ccc(C(F)(F)F)cc2)c1 [Compound 218]
Prompt: In this exercise, place the 3 compounds in ascending sequence of their recorded GI50. Dear reader, please state the labels in the requested order.
Response: b, a, c
(b: 104 nM, a: 1020 nM, c: 8470 nM)

###

- tested_on: EGFR(D770_N771insSVD) expressing Ba/F3 stable cell line (Homo sapiens, UniProt P00533, DUP768-770, cells depend on it)
- Sequence (P00533 with tags, fused parts or gaps DUP768-770): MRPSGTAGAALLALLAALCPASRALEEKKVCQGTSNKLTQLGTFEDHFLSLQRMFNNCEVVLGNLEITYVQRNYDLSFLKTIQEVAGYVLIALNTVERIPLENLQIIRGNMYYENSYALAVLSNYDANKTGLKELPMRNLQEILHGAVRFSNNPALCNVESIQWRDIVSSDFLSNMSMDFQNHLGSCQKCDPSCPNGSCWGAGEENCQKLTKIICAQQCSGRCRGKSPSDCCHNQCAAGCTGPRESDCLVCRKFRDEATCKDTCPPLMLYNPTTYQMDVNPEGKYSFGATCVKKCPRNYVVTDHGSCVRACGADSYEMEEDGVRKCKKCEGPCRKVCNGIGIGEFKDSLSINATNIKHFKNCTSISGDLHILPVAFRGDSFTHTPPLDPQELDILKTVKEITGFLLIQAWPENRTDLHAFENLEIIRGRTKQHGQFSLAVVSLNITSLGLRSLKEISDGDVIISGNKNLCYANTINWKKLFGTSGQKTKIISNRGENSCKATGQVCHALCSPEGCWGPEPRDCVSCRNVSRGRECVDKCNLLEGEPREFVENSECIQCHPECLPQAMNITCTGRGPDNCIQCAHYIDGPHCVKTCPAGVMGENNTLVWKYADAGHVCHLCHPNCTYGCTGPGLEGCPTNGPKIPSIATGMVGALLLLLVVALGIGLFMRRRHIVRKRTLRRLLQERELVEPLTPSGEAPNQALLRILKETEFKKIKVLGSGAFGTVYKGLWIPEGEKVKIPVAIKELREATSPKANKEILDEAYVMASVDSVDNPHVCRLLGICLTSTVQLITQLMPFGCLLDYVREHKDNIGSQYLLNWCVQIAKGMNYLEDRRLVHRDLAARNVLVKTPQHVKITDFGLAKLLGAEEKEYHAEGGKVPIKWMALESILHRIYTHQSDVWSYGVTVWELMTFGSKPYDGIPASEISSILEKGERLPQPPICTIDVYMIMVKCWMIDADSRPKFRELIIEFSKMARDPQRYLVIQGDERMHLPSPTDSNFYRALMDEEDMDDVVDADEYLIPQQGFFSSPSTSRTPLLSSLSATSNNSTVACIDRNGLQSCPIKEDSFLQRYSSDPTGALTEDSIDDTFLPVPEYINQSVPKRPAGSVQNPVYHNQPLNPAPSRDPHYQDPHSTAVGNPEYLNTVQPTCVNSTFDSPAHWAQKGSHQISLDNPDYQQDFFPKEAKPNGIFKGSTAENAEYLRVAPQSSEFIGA
- test_description: Cellular proliferation (Alamar Blue) assay, EGFR D770_N771insSVD Ba/F3
- Assay type: cell-based
- details: 72 hr, read-out: D770 IC50
property: GI50 (µM)

[I] C=CC(=O)Nc1cccc(N(C)c2nc(Nc3cnn(C)c3)ncc2-c2ccc(C(F)(F)F)cc2)c1
[II] C=CC(=O)Nc1ccc(F)c(Nc2nc(Nc3cnn(C)c3)ncc2-c2ccc(F)nc2)c1
Prompt: # returns the entry with the larger GI50; inputs I and II I would appreciate it if you answered with the label of your choice.
Response: I

###

- tested_on: HER2 (A775_G776insYVMA) expressing Ba/F3 stable cell line (Homo sapiens, UniProt P04626, DUP772-775, cells depend on it)
- Sequence (P04626 with tags, fused parts or gaps DUP772-775): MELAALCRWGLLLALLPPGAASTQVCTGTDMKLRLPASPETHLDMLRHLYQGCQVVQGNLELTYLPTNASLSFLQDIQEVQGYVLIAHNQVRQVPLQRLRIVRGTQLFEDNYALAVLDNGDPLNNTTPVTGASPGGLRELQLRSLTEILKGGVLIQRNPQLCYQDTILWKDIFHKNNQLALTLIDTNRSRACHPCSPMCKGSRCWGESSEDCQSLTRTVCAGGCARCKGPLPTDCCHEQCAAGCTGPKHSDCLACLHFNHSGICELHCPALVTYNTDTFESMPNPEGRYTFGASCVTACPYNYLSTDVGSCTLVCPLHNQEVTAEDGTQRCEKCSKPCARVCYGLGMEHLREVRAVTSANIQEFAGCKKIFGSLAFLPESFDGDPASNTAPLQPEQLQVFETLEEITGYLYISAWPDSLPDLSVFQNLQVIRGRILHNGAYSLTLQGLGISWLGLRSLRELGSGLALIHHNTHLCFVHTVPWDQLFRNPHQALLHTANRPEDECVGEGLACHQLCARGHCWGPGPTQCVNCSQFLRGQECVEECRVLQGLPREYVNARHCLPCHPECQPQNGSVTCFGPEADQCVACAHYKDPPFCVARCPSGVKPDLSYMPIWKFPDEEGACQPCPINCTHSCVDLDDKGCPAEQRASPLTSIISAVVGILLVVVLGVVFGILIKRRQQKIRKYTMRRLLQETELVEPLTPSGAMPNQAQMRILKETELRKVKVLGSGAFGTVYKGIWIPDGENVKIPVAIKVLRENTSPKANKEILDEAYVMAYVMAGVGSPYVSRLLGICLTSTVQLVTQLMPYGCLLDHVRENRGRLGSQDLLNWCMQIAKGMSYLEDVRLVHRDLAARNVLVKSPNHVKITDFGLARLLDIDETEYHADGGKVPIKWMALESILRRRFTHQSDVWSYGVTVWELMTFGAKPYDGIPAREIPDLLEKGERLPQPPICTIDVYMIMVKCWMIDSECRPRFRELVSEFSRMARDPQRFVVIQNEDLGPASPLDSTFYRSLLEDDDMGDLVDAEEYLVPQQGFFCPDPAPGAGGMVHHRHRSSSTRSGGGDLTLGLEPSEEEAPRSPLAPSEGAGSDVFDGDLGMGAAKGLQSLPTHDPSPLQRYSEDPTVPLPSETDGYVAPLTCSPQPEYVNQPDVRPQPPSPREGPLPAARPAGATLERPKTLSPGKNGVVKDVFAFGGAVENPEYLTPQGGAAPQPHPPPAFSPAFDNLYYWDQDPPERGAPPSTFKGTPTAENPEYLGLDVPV
- test_description: Cellular proliferation (Alamar Blue) assay, HER2 A775_G776insYVMA Ba/F3
- Assay type: cell-based
- details: 72 hr, read-out: YVMA IC50
property: GI50 (nM)

Example cases with answers are listed next.
compound	GI50 (nM)
C=CC(=O)Nc1ccc(F)c(Nc2nc(Nc3cnn(C)c3)ncc2NC(=O)c2ccccc2)c1	8620
[2H]C([2H])=CC(=O)Nc1ccc(F)c(Nc2nc(Nc3cn(C)nc3Cl)ncc2-c2ccc(C(F)(F)F)cc2)c1	1050
C=CC(=O)Nc1ccc(F)c(Nc2nc(Nc3cn(C)nc3Cl)ncc2-c2ccc(Br)cc2)c1	688

[I] C=CC(=O)Nc1cccc(Nc2nc(Nc3cnn(C)c3)ncc2-c2ccc(C(F)(F)F)nc2)c1
[II] C=CC(=O)Nc1ccc(F)c(Nc2nc(Nc3cnn(C)c3)ncc2-c2ccccc2F)c1
Prompt: Between item I and item II , which reported GI50 is smaller? // output: label of the selected item
Response: I

###

- tested_on: EGFR (A767_dupASV) expressing Ba/F3 stable cell line (Homo sapiens, UniProt P00533, DUP767-769, cells depend on it)
- test_description: Cellular proliferation (Alamar Blue) assay, EGFR A767_dupASV Ba/F3
- Format: cell-based
- details: 72 hr, read-out: A767 IC50
property: GI50 (nM)

compound	GI50 / nM
C=CC(=O)Nc1cccc(Oc2cc(Nc3cnn(C)c3)ncc2-c2ccc(C(F)(F)F)cc2)c1	7470

[1] C=CC(=O)Nc1cccc(Oc2nc(Nc3cnn(C)c3)ncc2-c2ccc(C(F)F)nc2)c1
[2] C=CC(=O)Nc1ccc(F)c(Nc2nc(Nc3cnn(C)c3)ncc2C#Cc2ccccc2)c1
[3] C=CC(=O)Nc1cccc(Oc2nc(Nc3cnn(CCN(C)C)c3)ncc2-c2ccc(C(F)(F)F)cc2)c1
[4] C=CC(=O)Nc1ccc(F)c(Nc2nc(Nc3cn(CCN(C)C)nc3Cl)ncc2-c2ccc(Br)cc2)c1
Prompt: In this exercise, place the 4 compounds in ascending sequence of their recorded GI50. Sort the labels as requested; that list is your answer.
Response: 1, 4, 2, 3

###

- Tested on: A431 cells
- test_description: Cellular proliferation (Alamar Blue) assay, A431
- Assay type: cell-based
- details: Homo sapiens, A-431; A431 cells, 72 hr, Alamar Blue; read-out: A431 IC50
pIC50: −log10 of the molar value.
property: pIC50

smiles_notation	pIC50
C=CC(=O)Nc1ccc(F)c(Nc2nc(Nc3cnn(CC(C)(C)O)c3)ncc2Br)c1	5.41
C#CC(=O)Nc1ccc(F)c(Nc2nc(Nc3cnn(C)c3)ncc2-c2ccc(C(F)(F)F)cc2)c1	6.00
C=CC(=O)Nc1cc(Nc2nc(Nc3cnn(C)c3)ncc2-c2ccc(C(F)(F)F)cc2)c(F)cn1	5.67
C=CC(=O)Nc1cccc(Oc2nc(Nc3ccc(CN(C)C)cc3)ncc2-c2ccc(C(F)(F)F)cc2)c1	5.95
C=CC(=O)Nc1ccc(F)c(Nc2nc(Nc3cnn(C)c3)ncc2N2CCOCC2)c1	5.09

[P] C=CC(=O)Nc1ccc(F)c(Nc2nc(Nc3cnn(C)c3)ncc2C2=CCOC2)c1
[Q] C=CC(=O)Nc1ccc(F)c(Nc2cc(Nc3cnn(C)c3)ncc2-c2ccc(C(F)(F)F)cc2)c1
Prompt: Compare P and Q by numeric pIC50 and name the larger one. # respond with the chosen item's label
Response: P

[A] C=CC(=O)Nc1ccc(F)c(Nc2nc(Nc3cnn(C)c3)ncc2-c2ccc3ncnn3c2)c1
[B] C=CC(=O)Nc1cc(Nc2nc(Nc3cnn(C)c3)ncc2Cl)cc2ccccc12
[C] C=CC(=O)Nc1cccc(Nc2ncc(Cl)c(Nc3cnn(C)c3)n2)c1
Prompt: Arrange the 3 compounds from largest to smallest pIC50. Please list the labels according to the requested order.
Response: A, C, B

[1] CN(C)C/C=C/C(=O)Nc1ccc(F)c(Nc2nc(Nc3cnn(C)c3)ncc2-c2ccc(CC(F)(F)F)cc2)c1
[2] C=CC(=O)Nc1ccc(F)c(Nc2nc(Nc3cnn(C(C)(C)C#N)c3)ncc2-c2ccc(C(F)(F)F)cc2)c1
Prompt: Param metric = pIC50; output whichever of 1 , 2 has the minimum value. Answer by stating the label of the chosen item.
Response: 2

[A] C=CC(=O)Nc1ccc(F)c(Nc2nc(Nc3cnn(C)c3)ncc2-c2ccc(C3(C(F)(F)F)CC3)cc2)c1
[B] C=CC(=O)Nc1ccc(F)c(Nc2nc(Nc3ccc(CN(C)C)cc3)ncc2Cl)c1
Prompt: Input pair: A , B . Output: entry with lower pIC50. Choose, then provide that item's label.
Response: B

###

- tested_on: EGFR (A767_dupASV) expressing Ba/F3 stable cell line (Homo sapiens, UniProt P00533, DUP767-769, cells depend on it)
- test_description: Cellular proliferation (Alamar Blue) assay, EGFR A767_dupASV Ba/F3
- Format: cell-based
- details: 72 hr, read-out: A767 IC50
property: GI50 (nM)

Recorded GI50, per entry:
smiles_notation	GI50 / nM
C=CC(=O)Nc1ccc(F)c(Nc2nc(Nc3cnn(C)c3)ncc2-c2ccnc(F)c2)c1	103
[2H]C([2H])=CC(=O)Nc1ccc(F)c(Nc2nc(Nc3cn(C)nc3Cl)ncc2-c2ccc(C(F)(F)F)cc2)c1	261
C=CC(=O)Nc1cncc(Nc2nc(Nc3cnn(C)c3)ncc2-c2ccc(C(F)(F)F)cc2)c1	135
C=CC(=O)Nc1cccc(Nc2nc(Nc3cnn(C)c3)ncc2-c2ccc(CC(F)(F)F)cc2)c1	28
C=CC(=O)Nc1ccc(F)c(Nc2cc(Nc3cnn(C)c3)ncc2-c2ccc(C(F)(F)F)cc2)c1	2900

[a] C=CC(=O)Nc1cccc(N(C)c2nc(Nc3cnn(C)c3)ncc2-c2ccc(C(F)(F)F)cc2)c1
[b] CN(C)C/C=C/C(=O)Nc1cccc(Nc2nc(Nc3cn(C)nc3Cl)ncc2C(F)(F)F)c1
Prompt: Higher GI50 between a and b ? Answer by quoting the chosen item's label.
Response: b
(b: 1040 nM, a: 426 nM)

[P] C=CC(=O)Nc1ccc(F)c(Nc2nc(Nc3cnn(C4CCOCC4)c3)ncc2-c2ccc(C(F)(F)F)cc2)c1
[Q] C=C(F)C(=O)Nc1ccc(F)c(Nc2nc(Nc3cnn(C)c3)ncc2Cl)c1
Prompt: Out of P and Q , name the one with the higher GI50. Pick one and reply with its label.
Response: Q

[I] C=CC(=O)Nc1cccc(Oc2nc(Nc3cnn(C)c3)ncc2-c2ccc(C(F)F)cc2)c1
[II] C=CC(=O)Nc1ccc(F)c(Nc2nc(Nc3cnn(C)c3)ncc2C#CC2CC2)c1
[III] C=CC(=O)Nc1ccc(F)c(Nc2nc(Nc3cnn(C)c3)ncc2-c2ccc(OC(F)(F)F)cc2)c1
Prompt: Sort (3 compounds) by GI50: min first. List the labels, following the order given in the request.
Response: I, III, II
